assay_text: protein stability index of a GFP-peptide fusion (yeast GPS) (PSI 1-4); higher = more stable; sorted into four equal gates, so the index is relative within each strain
assay_conditions: doa10∆
Consider the following sequences; for each one, report its protein stability index.

Worked examples follow.
- residue_codes: "EIALKGLESLLNIGLGA [YCS4]"
  protein stability index: 2.65
- residue_codes: "KVESQETLNDTIERSLI [YCS4]"
  protein stability index: 2.73
- residue_codes: "EFTSKIGFTIKEYENHS [SMC1]"
  protein stability index: 2.59
- residue_codes: "VQKRDEVKEQLGILKKK [SMC4]"
  protein stability index: 2.75
- residue_codes: "DGGYNAQLAKAKTELNE [SMC2]"
  protein stability index: 2.64

Please state protein stability index for every sequence in the list that follows.
1. GKIRGVEDDLVTVQTEL [SMC2]
2. PLQSIPEIGNRKINLFY [SWI1]
3. HYMVHEALNLLKFFLVD [LIN1]
4. RRYDRKQSGFGGQTKPV [RPL42A]
5. AGKFELLDRILPKLKAT [SNF2]
6. EDEDEDDETPSCEVEEI [SNU114]

[3.1, 1.51, 2.19, 3.08, 1.18, 3.05]

Please state protein stability index for every sequence in the list that follows.
1. AQQKLKQNPGLMQNMMN [SRP54]
2. ITHPGKMELVYVSDSDD [SIR4]
3. SAASKKKKNKNKGKKKR [SRP21]
4. EKCKEINVETVYDIMAL [BRR2]

2.74
3.24
3.22
2.28

Please state protein stability index for every sequence in the list that follows.
1. MNGRSLTYAQQQLNKQR [SNF6]
2. REKNSLESGKETALEFL [SMC4]
3. PQQSGKKLLINKDASLA [DPB4]
4. DKIPLNYAMTRNILHNT [SRB5]
5. VQDRGLSAVAQAESMKF [RPS3]

1. 3.28
2. 3.47
3. 2.2
4. 1.82
5. 3.16
